Please provide measured growth inhibition for the entries that follow.
# testProtocol: NCI Yeast Anticancer Drug Screen. Data for the rad50 strain (AID 155);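 further: 0% = growth of vehicle-only cultures of the same strain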
# testConditions: S. cerevisiae rad50 strain growth inhibition; at 50.0 µM; stronger effect = higher value
This is part of a sample that, as a whole, favours compounds with a hit. Of some 79,000 tested, about 15% had one in any assay.
# output: bare number, implied unit %

Measured growth inhibition, `[O-]c1n[n+](Cc2ccc(Br)cc2)no1` : 6.95

Measured growth inhibition, CC(=O)C(c1ccccc1)N(CCO)Cc1ccccc1 (stereo not given) : 8.15

Measured growth inhibition, COc1ccc(C(CC(=O)O)c2ccccc2)cc1 (stereo not given) : -31.4

Measured growth inhibition, `CCc1[nH]c2ccc(C)cc2c1C(=O)c1cccnc1` : 5.3

Measured growth inhibition, `CCOC(=O)C(C#N)=C(CC)CC` : -4

Measured growth inhibition, `CN(CCCO)CCCO` : 5.9

Measured growth inhibition, `COc1ccc2c(c1)CCc1nc(N)nc(N)c1-2` : -3.9

Measured growth inhibition, CC(=O)C1=C(O)C(Cc2ccccc2)NC1=O (stereo not given) : 11.9

Measured growth inhibition, `CN(C)c1ccc(/C=C/c2nc3ccc([N+](=O)[O-])cc3[nH]2)cc1` : -2.4

Measured growth inhibition, `O=C(Nc1ccc(O)cc1)c1ccccc1O` : 31.6

Measured growth inhibition, `O=C(O)c1ccccc1Nc1ccccc1[N+](=O)[O-]` : -4

Measured growth inhibition, CCCCN(CCCC)C(=O)C(=O)C(C)C(=O)CC (stereo not given) : -3.6

Measured growth inhibition, COc1cc(C2C3=C(COC3=O)OC(C)(C)Oc3cc4c(cc32)OCO4)cc(OC)c1O (stereo not given) : 55.7

Measured growth inhibition, COS(=O)c1cc(Cl)cc(Cl)c1O (stereo not given) : -0.6

Measured growth inhibition, `Cc1nc2c(=O)[nH]c(=O)[nH]c2[nH]c1=O` : -20.4

Measured growth inhibition, `Cc1ccc(NC(=O)CCCC(=O)CC(=O)c2ccc(Br)cc2)cc1` : -0.4

Measured growth inhibition, `CN(C)C(CO)(CO)CO` : 15.3

Measured growth inhibition, `O=C(O)CCCCCCCCCCCc1ccccc1` : -30.8

Measured growth inhibition, `CC(C)CCC(=O)OCC(=O)c1ccc(-c2ccccc2)cc1` : 8.55

Measured growth inhibition, `Cc1[nH]c2nccn2c(=O)c1CCCl` : 10.2

Measured growth inhibition, `O=P(O)(c1cc(Cl)cc(Cl)c1)c1cc(Cl)cc(Cl)c1` : 2.05

Measured growth inhibition, `Cc1nc2ccc(C(F)(F)F)cc2nc1Nc1ccc(Cl)c(Cl)c1` : 20.2

Measured growth inhibition, `COc1cc([N+](=O)[O-])ccc1P(=O)(O)O` : 2

Measured growth inhibition, `CC(=O)Nc1ccc(S(=O)(=O)/C(=C/c2ccc(-c3ccc(Br)cc3)o2)c2ccc([N+](=O)[O-])o2)cc1` : 30

Measured growth inhibition, OC(CSCc1ccccc1)c1ccccc1 (stereo not given) : -17.8

Measured growth inhibition, Cc1ccc(N2C(=O)c3ccccc3NC2(C)CCl)cc1 (stereo not given) : 4.55

Measured growth inhibition, `COc1ccccc1C(C)C` : -11.1

Measured growth inhibition, `[O-][N+](O)=C1c2ccccc2-c2ccccc21` : 7.4

Measured growth inhibition, `O=C(N/N=C/c1ccc(Cl)cc1)c1cc(-c2ccccc2)nc2ccccc12` : 5.95

Measured growth inhibition, O=C(NC1CC12c1ccccc1-c1ccccc12)Oc1ccc2ccccc2c1 (stereo not given) : 68.4

Measured growth inhibition, `N#C/C(=C\c1ccccc1[N+](=O)[O-])C(=O)O` : 36.5

Measured growth inhibition, Cc1ccc(C(=O)CC2=NC3NN(c4ccccc4)C(=O)C3=C2CC(=O)c2ccc(C)cc2)cc1 (stereo not given) : 38

Measured growth inhibition, `C[S+](C)CCOC(=O)C(=[N+]=[N-])c1ccc([N+](=O)[O-])cc1` : 32.5

Measured growth inhibition, CCOC(=O)C(CC1OCCO1)C1=NC(C)(C)CC(C)O1 (stereo not given) : -18.4

Measured growth inhibition, COc1ccc(C(O)Cc2cc(=O)cc(-c3ccccc3)[nH]2)cc1 (stereo not given) : 2.2

Measured growth inhibition, `O=C(NCCCCCCCCNC(=O)c1cccc2ccccc12)c1cccc2ccccc12` : 14.2

Measured growth inhibition, `COc1cccc(C(=O)CCN(C)C)c1` : 33.4

Measured growth inhibition, O=S(=O)(O)C(Cc1nc2ccccc2[nH]1)S(=O)(=O)OCCC1S(=O)(=O)OCCOS1(=O)=O (stereo not given) : 0

Measured growth inhibition, c1ccc(CC(c2cccc3ccccc23)N2CCOCC2)cc1 (stereo not given) : 22.2

Measured growth inhibition, `CCC(=O)N1CCN(C(=O)CC)c2ccccc21` : -3

Measured growth inhibition, O=C1C(Cl)N(c2c(Cl)cccc2Cl)C1c1c[nH]c2ccccc12 (stereo not given) : -35.5

Measured growth inhibition, `CC(=O)Oc1ccc2cc(Br)ccc2c1N(C(C)=O)C(C)=O` : 13.1

Measured growth inhibition, COc1ccc2c(c1OC)C1NCCc3cc4c(cc3C1(OC)C2=O)OCO4 (stereo not given) : 21.9

Measured growth inhibition, `CSC1=N[C@H](c2ccccc2)CS1` : 21.9

Measured growth inhibition, `CS(C)(=O)=Nc1ccc(F)cc1` : 8.9

Measured growth inhibition, C=CC1OCC2(CO1)COC(C=C)OC2 (stereo not given) : 12.4

Measured growth inhibition, COc1cc2c(cc1C(C)c1ccc(OC(C)C)cc1)OCO2 (stereo not given) : -4.7

Measured growth inhibition, CC(C)(C)OC(=O)NC(CCC(=O)OCc1ccccc1)C(=O)NCCCO (stereo not given) : -11.8

Measured growth inhibition, `Cc1nc(N)[nH]c(=O)c1N` : 13.9

Measured growth inhibition, CCOC(=O)N1c2ccccc2SC1C#N (stereo not given) : 63.1
